# Tested on: BxPC-3 (Pancreatic Carcinoma)
# Protocol summary: Bliss excess, mean over the matrix (fraction); higher = more synergy
Measurement kind: Bliss excess
Just the number, please, no unit attached.

Look up Bliss excess: CS(=O)(=O)CCNCc1ccc(-c2ccc3ncnc(Nc4ccc(OCc5cccc(F)c5)c(Cl)c4)c3c2)o1 [Lapatinib] + NC1(c2ccc(-c3nc4ccn5c(=O)[nH]nc5c4cc3-c3ccccc3)cc2)CCC1 [MK-2206] (first compound max 10 µM, 7x7, partner max 10 µM)
0.0263

Look up Bliss excess: Cc1cc2ncnn2cc1Nc1ncc2c(n1)n(C1CCOCC1)c(=O)n2C [AZD7648] + C=CCn1c(=O)c2cnc(Nc3ccc(N4CCN(C)CC4)cc3)nc2n1-c1cccc(C(C)(C)O)n1 [AZD1775] (first compound max 10 µM, partner max 1 µM)
-0.0502

Look up Bliss excess: CC1(C)CCC(CN2CCN(c3ccc(C(=O)NS(=O)(=O)c4ccc(NCC5CCOCC5)c([N+](=O)[O-])c4)c(Oc4cnc5[nH]ccc5c4)c3)CC2)=C(c2ccc(Cl)cc2)C1 [Venetoclax] + CN(C)CCCOc1ccc(-c2ccc3ncc4c(c3c2)n(C2CCOCC2)c(=O)n4C)cn1 [AZD0156] (first compound max 1 µM, 7x7, partner max 1 µM)
-0.0304

Look up Bliss excess: O=C(c1cc(Cc2n[nH]c(=O)c3ccccc23)ccc1F)N1CCN(C(=O)C2CC2)CC1 [Olaparib] + Cc1c2c(nn1C)CSCc1cc(n(C)n1)CSc1cc(c3ccccc3c1)OCCCc1c(C(=O)O)n(C)c3c-2c(Cl)ccc13 [AZD5991] (first compound max 10 µM, 7x7, partner max 1 µM)
-0.066

Look up Bliss excess: C[C@@H](c1ccc2nccn2c1)n1nnc2ncc(-c3cnn(C)c3)nc21 [Savolitinib] + CC1(C)CCC(CN2CCN(c3ccc(C(=O)NS(=O)(=O)c4ccc(NCC5CCOCC5)c([N+](=O)[O-])c4)c(Oc4cnc5[nH]ccc5c4)c3)CC2)=C(c2ccc(Cl)cc2)C1 [Venetoclax] (first compound max 1 µM, 7x7, partner max 1 µM)
-0.0371

----------
# System: SKG-IIIa (Cervical Carcinoma)
# Protocol summary: Bliss excess, mean over the matrix (fraction); higher = more synergy
Measurement kind: Bliss excess
Just the number, please, no unit attached.

GET /values?readout=Bliss excess&system=SKG-IIIa (Cervical Carcinoma)&item= O=C(c1cc(Cc2n[nH]c(=O)c3ccccc23)ccc1F)N1CCN(C(=O)C2CC2)CC1 [Olaparib] + CC1(C)CCC(CN2CCN(c3ccc(C(=O)NS(=O)(=O)c4ccc(NCC5CCOCC5)c([N+](=O)[O-])c4)c(Oc4cnc5[nH]ccc5c4)c3)CC2)=C(c2ccc(Cl)cc2)C1 [Venetoclax] (first compound max 10 µM, 7x7, partner max 1 µM)
-0.0695

GET /values?readout=Bliss excess&system=SKG-IIIa (Cervical Carcinoma)&item= CN(CCO)CC[C@H](CSc1ccccc1)Nc1ccc(S(=O)(=O)NC(=O)c2ccc(N3CCC([C@@H](O)c4ccccc4-c4ccc(Cl)cc4)CC3)cc2)cc1S(=O)(=O)C(F)(F)F [AZD4320] + Cn1cnc2c(F)c(Nc3ccc(Br)cc3Cl)c(C(=O)NOCCO)cc21 [Selumetinib] (first compound max 1 µM, 7x7, partner max 3 µM)
0.0044

GET /values?readout=Bliss excess&system=SKG-IIIa (Cervical Carcinoma)&item= COc1nnc2ccc(N3CCC(c4ccc(OCCN5CCN(C)C(=O)[C@H]5C)cc4)CC3)nn12 [AZD5153] + C[C@@H]1COCCN1C2=NC(=NC(=C2)C3(CC3)[S@](=N)(=O)C)C4=C5C=CNC5=NC=C4 [AZD6738] (first compound max 1 µM, 7x7, partner max 10 µM)
0.0105

GET /values?readout=Bliss excess&system=SKG-IIIa (Cervical Carcinoma)&item= Cc1c2c(nn1C)CSCc1cc(n(C)n1)CSc1cc(c3ccccc3c1)OCCCc1c(C(=O)O)n(C)c3c-2c(Cl)ccc13 [AZD5991] + CN(C)CCCOc1ccc(-c2ccc3ncc4c(c3c2)n(C2CCOCC2)c(=O)n4C)cn1 [AZD0156] (first compound max 1 µM, 7x7, partner max 1 µM)
0.0104

GET /values?readout=Bliss excess&system=SKG-IIIa (Cervical Carcinoma)&item= NC1(C(=O)N[C@@H](CCO)c2ccc(Cl)cc2)CCN(c2ncnc3[nH]ccc23)CC1 [Capivasertib] + C[C@@H]1COCCN1C2=NC(=NC(=C2)C3(CC3)[S@](=N)(=O)C)C4=C5C=CNC5=NC=C4 [AZD6738] (first compound max 10 µM, 7x7, partner max 10 µM)
-0.0602

GET /values?readout=Bliss excess&system=SKG-IIIa (Cervical Carcinoma)&item= CN(C)CCCOc1ccc(-c2ccc3ncc4c(c3c2)n(C2CCOCC2)c(=O)n4C)cn1 [AZD0156] + C=CCn1c(=O)c2cnc(Nc3ccc(N4CCN(C)CC4)cc3)nc2n1-c1cccc(C(C)(C)O)n1 [AZD1775] (first compound max 1 µM, partner max 1 µM)
-0.0565

GET /values?readout=Bliss excess&system=SKG-IIIa (Cervical Carcinoma)&item= C[C@@H](Oc1cc(-c2cnn(C3CCNCC3)c2)cnc1N)c1c(Cl)ccc(F)c1Cl [Crizotinib] + Cn1cnc2c(F)c(Nc3ccc(Br)cc3Cl)c(C(=O)NOCCO)cc21 [Selumetinib] (first compound max 10 µM, 7x7, partner max 10 µM)
-0.0048

GET /values?readout=Bliss excess&system=SKG-IIIa (Cervical Carcinoma)&item= COc1cccc(OCCCN)c1-c1cc(Nc2cnc(C#N)cn2)n[nH]1 [Prexasertib] + CN(C)CCCOc1ccc(-c2ccc3ncc4c(c3c2)n(C2CCOCC2)c(=O)n4C)cn1 [AZD0156] (first compound max 1 µM, 7x7, partner max 1 µM)
0.0159

GET /values?readout=Bliss excess&system=SKG-IIIa (Cervical Carcinoma)&item= C[C@@H]1COCCN1c1cc(C2([S@](C)(=N)=O)CC2)nc(-c2ccnc3[nH]ccc23)n1 [AZD6738] + C1CC(C1)(C(=O)[O-])C(=O)[O-].N.N.[Pt+2] [Carboplatin] (first compound max 10 µM, 7x7, partner max 10 µM)
-0.0079

GET /values?readout=Bliss excess&system=SKG-IIIa (Cervical Carcinoma)&item= COc1cccc2c1C(=O)c1c(O)c3c(c(O)c1C2=O)C[C@@](O)(C(=O)CO)C[C@@H]3O[C@H]1C[C@H](N)[C@H](O)[C@H](C)O1 [Doxorubicin] + Cc1cc2ncnn2cc1Nc1ncc2c(n1)n(C1CCOCC1)c(=O)n2C [AZD7648] (first compound max 1 µM, 7x7, partner max 10 µM)
0.0086

GET /values?readout=Bliss excess&system=SKG-IIIa (Cervical Carcinoma)&item= CS(=O)(=O)CCNCc1ccc(-c2ccc3ncnc(Nc4ccc(OCc5cccc(F)c5)c(Cl)c4)c3c2)o1 [Lapatinib] + C[C@@H](Oc1cc(-c2cnn(C3CCNCC3)c2)cnc1N)c1c(Cl)ccc(F)c1Cl [Crizotinib] (first compound max 10 µM, 7x7, partner max 10 µM)
-0.0438

GET /values?readout=Bliss excess&system=SKG-IIIa (Cervical Carcinoma)&item= COc1cccc(OCCCN)c1-c1cc(Nc2cnc(C#N)cn2)n[nH]1 [Prexasertib] + CCc1c2c(nc3ccc(O)cc13)-c1cc3c(c(=O)n1C2)COC(=O)[C@]3(O)CC [SN-38] (first compound max 1 µM, 7x7, partner max 0.3 µM)
0.0683

GET /values?readout=Bliss excess&system=SKG-IIIa (Cervical Carcinoma)&item= N#Cc1cnc(Nc2cc(NC[C@H]3CNCCO3)c(C(F)(F)F)cn2)cn1 [SRA737] + CCc1c2c(nc3ccc(O)cc13)-c1cc3c(c(=O)n1C2)COC(=O)[C@]3(O)CC [SN-38] (first compound max 10 µM, 7x7, partner max 0.3 µM)
0.0311

----------
Record form. Attribute: combination Emax. Fill in for each entry.
# Test system: SNU-407 (Colorectal Carcinoma)
# Protocol summary: combination Emax (second highest fraction inhibited in the dose matrix, 72 h); higher = more inhibition; extreme values may be limits of the assay
Just the number, please, no unit attached.

Look up combination Emax: CCc1c2c(nc3ccc(O)cc13)-c1cc3c(c(=O)n1C2)COC(=O)[C@]3(O)CC [SN-38] + CN(C)CCCOc1ccc(-c2ccc3ncc4c(c3c2)n(C2CCOCC2)c(=O)n4C)cn1 [AZD0156] (first compound max 0.3 µM, 7x7, partner max 1 µM)
0.416

Look up combination Emax: CC1(C)CCC(CN2CCN(c3ccc(C(=O)NS(=O)(=O)c4ccc(NCC5CCOCC5)c([N+](=O)[O-])c4)c(Oc4cnc5[nH]ccc5c4)c3)CC2)=C(c2ccc(Cl)cc2)C1 [Venetoclax] + CCN(CCO)CCCOc1ccc2c(Nc3cc(CC(=O)Nc4cccc(F)c4)[nH]n3)ncnc2c1 [AZD2811] (first compound max 1 µM, 7x7, partner max 1 µM)
0.485

Look up combination Emax: COc1nnc2ccc(N3CCC(c4ccc(OCCN5CCN(C)C(=O)[C@H]5C)cc4)CC3)nn12 [AZD5153] + Cc1c2c(nn1C)CSCc1cc(n(C)n1)CSc1cc(c3ccccc3c1)OCCCc1c(C(=O)O)n(C)c3c-2c(Cl)ccc13 [AZD5991] (first compound max 1 µM, 7x7, partner max 1 µM)
0.977

Look up combination Emax: C[C@@H](c1ccc2nccn2c1)n1nnc2ncc(-c3cnn(C)c3)nc21 [Savolitinib] + CC1(C)CCC(CN2CCN(c3ccc(C(=O)NS(=O)(=O)c4ccc(NCC5CCOCC5)c([N+](=O)[O-])c4)c(Oc4cnc5[nH]ccc5c4)c3)CC2)=C(c2ccc(Cl)cc2)C1 [Venetoclax] (first compound max 1 µM, 7x7, partner max 1 µM)
0.231

Look up combination Emax: CC1(C)CCC(CN2CCN(c3ccc(C(=O)NS(=O)(=O)c4ccc(NCC5CCOCC5)c([N+](=O)[O-])c4)c(Oc4cnc5[nH]ccc5c4)c3)CC2)=C(c2ccc(Cl)cc2)C1 [Venetoclax] + CN(C)CCCOc1ccc(-c2ccc3ncc4c(c3c2)n(C2CCOCC2)c(=O)n4C)cn1 [AZD0156] (first compound max 1 µM, 7x7, partner max 1 µM)
0.234

Look up combination Emax: CC(=O)c1c(C)c2cnc(Nc3ccc(N4CCNCC4)cn3)nc2n(C2CCCC2)c1=O [Palbociclib] + CN(CC[C@H](CSC1=CC=CC=C1)NC2=C(C=C(C=C2)S(=O)(=O)NC(=O)C3=CC=C(C=C3)N4CCC(CC4)[C@H](C5=CC=CC=C5C6=CC=C(C=C6)Cl)O)S(=O)(=O)C(F)(F)F)CCO [AZD4320] (first compound max 10 µM, 7x7, partner max 1 µM)
0.483

Look up combination Emax: CN(C)CCCOc1ccc(-c2ccc3ncc4c(c3c2)n(C2CCOCC2)c(=O)n4C)cn1 [AZD0156] + CCN(CCO)CCCOc1ccc2c(Nc3cc(CC(=O)Nc4cccc(F)c4)[nH]n3)ncnc2c1 [AZD2811] (first compound max 1 µM, 7x7, partner max 1 µM)
0.287
